assay.name: Oral bioavailability in Wistar rat at 10 mg/kg
Format: ADME, organism-based
reported.conditions: in vivo
readout.name: bioavailability (%)

compound: CCc1cc(-c2noc(-c3sc(CC)c4c3CCC(C)(C)C4)n2)cc(C)c1OC[C@@H](O)CNC(=O)CO
readout.name: bioavailability
value.modifier: >
obs.value: 33
//
compound: CCc1cc(CCC(=O)c2sc(CC)c3c2CCC(C)(C)C3)cc(C)c1OCC(O)CNC(=O)CO (racemic)
readout.name: bioavailability
value.modifier: =
obs.value: 8

====

assay.name: Drug uptake in Wistar rat mesenteric lymph at 10 mg/kg, po after 3 hrs
Assay type: ADME, organism-based, Mesenteric lymph node
Set-up: dose 10 mg/kg, route oral
reported.conditions: read-out: Drug uptake

smiles.input: CCc1cc(-c2noc(-c3sc(CC)c4c3CCC(C)(C)C4)n2)cc(C)c1OC[C@@H](O)CNC(=O)CO
concentration at 3 h: 8090 ng/mL

====

assay.name: Drug uptake in Wistar rat mesenteric lymph at 10 mg/kg, po after 24.8 hrs
Type: ADME, organism-based, Mesenteric lymph node
Parameters: dose 10 mg/kg, route oral
reported.conditions: read-out: Drug uptake

smiles.input: CCc1cc(-c2noc(-c3sc(CC)c4c3CCC(C)(C)C4)n2)cc(C)c1OC[C@@H](O)CNC(=O)CO
concentration at 24.8 h / ng/mL: 684

====

assay.name: Plasma concentration in Wistar rat at 10 mg/kg, po after 1.7 hrs
Type: ADME, organism-based
Parameters: dose 10 mg/kg, route oral
readout.name: concentration at 1.7 h (ng/mL)

smiles.input: CCc1cc(-c2noc(-c3sc(CC)c4c3CCC(C)(C)C4)n2)cc(C)c1OC[C@@H](O)CNC(=O)CO
obs.value: 58.1

====

assay.name: Plasma concentration in Wistar rat at 10 mg/kg, po after 2.3 hrs
Format: ADME, organism-based
Set-up: dose 10 mg/kg, route oral
readout.name: concentration at 2.3 h

smiles.input: CCc1cc(-c2noc(-c3sc(CC)c4c3CCC(C)(C)C4)n2)cc(C)c1OC[C@@H](O)CNC(=O)CO
readout.name: concentration at 2.3 h
obs.value: 123 ng/mL

====

assay.name: Drug uptake in Wistar rat mesenteric lymph at 10 mg/kg, po after 2.3 hrs
Assay type: ADME, organism-based, Mesenteric lymph node
Set-up: dose 10 mg/kg, route oral
reported.conditions: read-out: Drug uptake

smiles.input: CCc1cc(-c2noc(-c3sc(CC)c4c3CCC(C)(C)C4)n2)cc(C)c1OC[C@@H](O)CNC(=O)CO
concentration at 2.3 h [ng/mL]: 4600

====

assay.name: Plasma concentration in Wistar rat at 10 mg/kg, po after 24 hrs
Type: ADME, organism-based
Parameters: dose 10 mg/kg, route oral
readout.name: concentration at 24 h (ng/mL)

compound: CCc1cc(-c2noc(-c3sc(CC)c4c3CCC(C)(C)C4)n2)cc(C)c1OC[C@@H](O)CNC(=O)CO
value.modifier: =
obs.value: 530
--
compound: Cc1cc(-c2noc(-c3ccc(CC(C)C)s3)n2)cc(C)c1OCC(O)CNC(=O)CO (racemic)
value.modifier: =
obs.value: 23
--
compound: CCc1cc(CCC(=O)c2sc(CC)c3c2CCC(C)(C)C3)cc(C)c1OCC(O)CNC(=O)CO (racemic)
value.modifier: <
obs.value: 1.5
--
compound: CCc1ccc(-c2nc(-c3cc(C)c(OCC(O)CNC(=O)CO)c(C)c3)no2)s1 (racemic)
value.modifier: <
obs.value: 2
